Substrate: O=C(O)C(=O)C[C@@H](O)CO
Experiment: purified protein, by the assay type
Parameters: coupled assay with PpKGSADH, NADH formation at 340 nm, Michaelis-Menten fit, 25 °C, pH 7.5
Settings: pH 7.5; 25.0 °C
Property: kcat/Km (M⁻¹ s⁻¹)
Your answer should be a plain number; it is taken to be in M⁻¹ s⁻¹.

Problem: What value of measured kcat/Km is listed for CcD-KdpD2 (Caulobacter vibrioides NA1000) (protein, C-terminal His6 tag (kept), pET vector, E. coli BL21(DE3), HisTrap purified) MGVSEFLPEDWKAATLLGRIDFGEGPTPVLVRGGRVEDVSKIAPTVADLMNAFQPGAVIPRGEDKGPLEALDIRPVWEDPDGAAPVKLLAPVDLQCLKAAGVTFAVSTLERVIEERARGDAGEALKIRTLLAERMGGDLKSVEPGSQGAQRLKDALIADGLWSQYLEVAIGPDAEIFTKGPTLSSMGWGDQVGVRYDSHWNNPEPEVVLLCDGSGLIRGAALGNDVNLRDFEGRSALLLSKAKDNNASCAIGPFFRLFDETFGLDDVRSAEVELKITGRDNFVLDGKSNMSLISRDPAVLAGQAYGKQHQYPDGFALFLGTMFAPIQDRDTPGQGFTHKVGDRVRVSTPKLGVLENEVTTCDKAKPWTFGISALIRNLAGRGLL ?
Solution: 2440

These entries and their values trace back to paper PMC7374468.
